System: HOP-92 NSCLC
Test: NCI-60 one-dose screen, 48 h (100 = growth as untreated, 0 = no growth, -100 = all killed)
Conditions: 10 µM unless noted
This is part of a sample that, as a whole, favours compounds with a hit. Of some 83,000 tested, about 20% had one in any assay.
growth for assorted compounds
I only need the number, in %, no unit after it.

The following compounds have reported results that may help.
CC(=O)c1ccc2c(c1)C1C=CCC1[C@H](c1cc3c(cc1Br)OCO3)N2 (stereo partly drawn)
16
Cc1cn(C2CC(N=[N+]=[N-])C(COP(=O)(O)OP(=O)(O)OP(=O)(O)O)O2)c(=O)[nH]c1=O (stereo not drawn)
50.9
Cc1ccc2[nH]c3nc4cccnc4c(C)c3c2c1
115
COc1cccc(C2CC(c3cc(OC)c(OC)c(OC)c3)=NN2)c1 (stereo not drawn)
80
O=C(CSc1nnc(-c2cc3c([nH]c4ccccc43)c(-c3cccc(O)c3)n2)n1-c1ccccc1)c1ccccc1
67.6

State the recorded growth for this entry: COc1cc(C(=O)C[n+]2ccccc2)ccc1OC(C)=O
91.5

Same for CC(/C=C/C=C(\C)[C@H](O)[C@H](C)C(=O)O[C@H]1C[C@H](C)C=C2C=C[C@@]3(C)O[C@@H](O)CC(=O)[C@]3(C)[C@H]21)=C\C=C\C(=O)O
-14.2

Same for CN(C)c1ccc(/C=N/N=C(N)N)cc1
73.6

Same for CC1=C2C(=C[C@@](C)(CO)[C@@H]2OC(=O)N(C)CCN(C)C(=O)OC(C)(C)C)C(=O)[C@](C)(O)C12CC2
8.11

Same for COc1ccc(C[C@H](N)C(=O)N[C@@H]2[C@@H](CO)OC(n3cnc4c(N(C)C)ncnc43)[C@@H]2O)cc1 (stereo partly drawn)
-67.1

Same for COc1ccc(-c2nn(-c3ccc(NC(=O)Nc4ccc(Cl)c(Cl)c4)cc3)cc2-c2ccncc2)cc1Cl
-17

----------
growth for assorted compounds
System: HS 578T breast
Assay: NCI-60 one-dose screen, 48 h (100 = growth as untreated, 0 = no growth, -100 = all killed)
Conditions: 10 µM unless noted
Compounds without any hit were thinned out: in the full panel of roughly 83,000, 20% have a hit.
I only need the number, in %, no unit after it.

The following compounds have reported results that may help.
Cc1cccc(CC(=O)c2ccccc2)n1
91
Cc1cccc[n+]1CCC[n+]1ccccc1C
109
CC(C)(C)NCC(O)COc1c(Br)c(Br)c(Br)c2c1OC(C)(C)C2 (stereo unspecified)
-64.8
O=c1nc(N2CCOCC2)oc2c(-c3cccc4ccccc34)cccc12
83.8
COc1ccc(NC(=O)Nc2ccc(-c3ccc(OC)c(OC)c3)nc2C)cc1
40

Next up:
State the recorded growth for this entry: Cc1c(NC(=O)c2sc3nc4c(cc3c2N)CN(Cc2ccccc2)CC4)cccc1C(F)(F)F
31

----------
Test system: OVCAR-8 ovarian
Test: NCI-60 one-dose screen, 48 h (100 = growth as untreated, 0 = no growth, -100 = all killed)
Conditions: 10 µM unless noted
The panel holds about 83,000 compounds, 20% with a hit somewhere; the sample as a whole holds those more often.
MEASUREMENT KIND: growth (%)
I only need the number, in %, no unit after it.

C=C1C(=O)O[C@H]2[C@H]1CC/C(COC(=O)c1ccc(Cl)nc1)=C\CC[C@@]1(C)O[C@@H]21
-8.23

State the recorded growth for this entry: Cc1ccccc1C[P+](c1ccccc1)(c1ccccc1)c1ccccc1
18.7

Same for COc1ccc(-c2cc(-c3nnc(SC/C(=N\O)c4ccccc4)n3-c3ccccc3)c3ccccc3n2)cc1
98.7

Same for Cc1nccc2c3ccc(OCc4cn(-c5ccc(Br)cc5)nn4)cc3n(CCCc3ccccc3)c12
2.18

Same for COc1cccc(-c2nc3sccn3c2-c2ccnc(NCCNC(=O)c3ccccc3)n2)c1
62.5

Same for COc1ccc(/C=C/C(=O)/C=C(/C=C/c2ccc(OC)c(OC)c2OC)OB(F)F)c(OC)c1OC
10

Same for CC(C)(C)NC(C1=CC(C)(C)c2ccccc2C1=O)c1ccccc1 (stereo not drawn)
-47.9

Same for O=C(Nc1cccc(-n2ccc3c(NC(=O)c4ccccc4)nccc32)c1)c1cc(N2CCOCC2)cc(C(F)(F)F)c1
2.86

Same for COc1ccc2c(c1)OC(N)=C(C#N)C2c1ccc(F)c(F)c1 (stereo not drawn)
33.9

Same for C=C1C(=O)O[C@H]2[C@H]1CC/C(C(=O)NCCOCCOCC(=O)Nc1ccc(OC)c(C(N)=O)c1O)=C\CC[C@@]1(C)O[C@@H]21
89.8

Same for NC(=O)C1=C[C@H]2[C@H]3C=C[C@@]2(O)C(=O)O[C@@H]3O1
48.8

Same for COC(=O)c1oc2c(C(C)=O)c(OCCCN(C)C)ccc2c1C
111

Same for CCOC(=O)c1cnc2c(OC)ccc(OC)c2c1Cl
101

Same for O=C(O)c1cn(C2CC2)c2cc(N3CCN(C(=O)CSc4nc(NS(=O)(=O)c5ccccc5)cc(=O)[nH]4)CC3)c(F)cc2c1=O
98.5

Same for Cc1ccc2c(C3C(C#N)=C(N)Oc4cc5ccccc5cc43)cc(=O)oc2c1 (stereo not drawn)
24.5

Same for C=C1C(=O)O[C@H]2[C@H]1CC/C(COC(=O)OC/C1=C/CC[C@@]3(C)O[C@H]3[C@H]3OC(=O)[C@@H](CN(C)C)[C@@H]3CC1)=C\CC[C@@]1(C)O[C@@H]21
9.26

Same for CCn1cc(/C=C2\Oc3cc(OCC#N)ccc3C2=O)c2cc(OC)ccc21
21

Same for CCCCn1c(-c2cccc(OC)c2)nc2cc(OC)c(OC)cc2c1=O
118

----------
Tested on: UACC-62 melanoma
Assay: NCI-60 one-dose screen, 48 h
Conditions: 10 µM unless noted
About 83,000 compounds went through this panel and 20% of them were active in at least one assay; those are over-represented in the sample as a whole. Calls of active or inactive are those of the source. How the source made its calls: active means growth percent below 10; inactive means the rest.
Please answer using one outcome listed in t for active, f for inactive

Sample answers from the record:
C=CC(=O)Nc1cccc(Nc2nc(Nc3ccc(OCCOC(F)F)cc3)ncc2F)c1
f
O=C(Nc1ccc(F)cc1)Nc1ccc(Cl)c([N+](=O)[O-])c1
f
COc1cc(NC(=O)c2cc(OC)c3ccn(C)c3c2)cc2c1C[C@]1(C)CC[C@@H](O)C(C)(C)[C@H]1O2
f

Hey, what did the test say about CC(C)CCC[C@@H](C)[C@H]1CC[C@H]2[C@@H]3CC=C4N(c5ccccc5)C(=O)CC[C@]4(C)[C@H]3CC[C@]12C ?
f

Same for Cc1cn(-c2nc3c(c(NCc4ccccc4)n2)COCC3)c2cccc(C(N)=O)c12
f

Same for Cn1c(I)c(C#C[Si](C)(C)C)c(=O)[nH]c1=O
f

Same for CCC1S/C(=N\N=C(/C)c2cccs2)N(c2ccccc2)C1=O (stereo unspecified)
f

Same for CC1CCC(C(C)C)C(NN)C1 (stereo unspecified)
f

Same for COc1ccc(/C=C2/C(=O)Nc3cc(Cl)c(-c4csc(N)n4)cc32)cc1
f

Same for COc1ccc(-c2c(C#N)cnc(N)c2-c2nc3cc(C)c(C)cc3[nH]2)cc1
f

Same for C/C(=N\N=C1/SCC(=O)N1c1ccccc1)c1ccco1
f

Same for CN(C)CCCOc1c(Br)cc(/C=C/C(=O)N(C)CCc2cc(Br)c(OCCCN(C)C)c(Br)c2)cc1Br
t

Same for CCCCCC/C=N/Nc1ccc([N+](=O)[O-])cn1
f

Same for c1nc(SC2=NCCN2)c2[nH]cnc2n1
f

Same for Cc1cc(SCc2ccc(Cl)cc2Cl)nc(SCc2ccc(Cl)cc2Cl)n1
f

Same for N#CC(C#N)=C(C#N)c1c[nH]c2ccccc12
f

Same for NC(CSC(c1ccccc1)(c1ccccc1)c1ccc(F)cc1)C(=O)O (stereo unspecified)
f

Same for CC[C@@]1(O)C(=O)OCc2c1cc1n(c2=O)Cc2c-1nc1ccccc1c2/C=N/OC(C)(C)C
t

Same for CCOc1ccc(NC2=C(Cl)C(=O)c3ccccc3C2=O)cc1
f

Same for O=C(Nc1ccccc1Cl)c1c[nH]c(=O)c(-c2ccc(N3CCCOC4(CC4)C3)cc2)c1
f

Same for CN(C)c1ncc(C#Cc2c(F)cccc2F)c2ccccc12
f

----------
System: SNB-19 CNS
Test: NCI-60 one-dose screen, 48 h (100 = growth as untreated, 0 = no growth, -100 = all killed)
Details: 10 µM unless noted
The panel holds about 83,000 compounds, 20% with a hit somewhere; the sample as a whole holds those more often.
growth for assorted compounds
I only need the number, in %, no unit after it.

The following compounds have reported results that may help.
O=C1/C(=C/c2cccc3cnccc23)Cc2cc(F)ccc21
102
O=c1nc(N2CCOCC2)oc2c(-c3cccc4ccccc34)cccc12
91.8
C#CC(=O)/C=C/CCCCCCC#CC(=O)CCC(=O)C#CCCCCCC/C=C/C(=O)C#C
32
Oc1ccc(O)c(-[n+]2ccccc2)c1
100
COc1ccc(-c2nnc(SCC(=O)N3CCN(c4cc5c(cc4F)c(=O)c(C(=O)O)cn5C4CC4)CC3)o2)cc1OC
97.4
Clc1ccc2c(c1)nnn1c3ncccc3c(Br)c21
89

State the recorded growth for this entry: CC(CN(C)C)CN1c2ccccc2CCc2ccccc21 (stereo not given)
96.8

Same for O=C(Nc1ccc(-n2cc(-c3ccncc3)c(-c3ccc(O)c(Cl)c3)n2)cc1)c1ccc(Cl)c(Cl)c1
59.6

Same for CN(CCNCc1ccccn1)CCNCc1ccccn1
44.7

Same for O=C(NCCNc1nccc(-c2c(-c3cccc(O)c3)nc3sccn23)n1)c1cc(N2CCOCC2)cc(C(F)(F)F)c1
125

Reference for the values: PubChem BioAssay (NCI)
